Hello, the source for this data is ChEMBL document CHEMBL1132223, in case you need it.

ASSAYED SYSTEM: Neutrophil collagenase (Homo sapiens)
Sequence (P22894 whole entry): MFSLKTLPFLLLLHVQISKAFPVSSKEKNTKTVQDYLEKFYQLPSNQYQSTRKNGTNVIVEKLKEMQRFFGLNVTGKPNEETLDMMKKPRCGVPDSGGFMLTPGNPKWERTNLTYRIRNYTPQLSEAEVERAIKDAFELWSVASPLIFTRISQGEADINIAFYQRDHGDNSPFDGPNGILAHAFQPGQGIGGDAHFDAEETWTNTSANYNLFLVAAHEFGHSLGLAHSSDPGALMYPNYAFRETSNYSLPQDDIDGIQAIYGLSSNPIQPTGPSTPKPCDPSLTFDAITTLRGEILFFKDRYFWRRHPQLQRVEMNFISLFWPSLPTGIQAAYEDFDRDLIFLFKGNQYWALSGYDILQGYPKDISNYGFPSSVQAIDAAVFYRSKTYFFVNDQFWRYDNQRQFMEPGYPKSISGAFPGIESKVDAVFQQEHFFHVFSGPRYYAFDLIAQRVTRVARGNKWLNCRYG
EXPERIMENT NOTES: Inhibition of human neutrophil collagenase [Matrix Metalloprotease-8, MMP-8]
Recorded IC50 split into classes lowest = under 10 nM, middle = from 10 nM up to 200 nM, highest = 200 nM and over

>>> category_label("Nc1ccc2c(c1)CN(S(=O)(=O)c1ccc(-c3ccc(Cl)cc3)cc1)[C@@H](C(=O)C(=O)O)C2")
"lowest"
>>> category_label("O=C(NO)[C@H]1Cc2ccccc2CN1S(=O)(=O)Cc1ccccc1")
"highest"
>>> category_label("COc1ccc(S(=O)(=O)N2Cc3cc(N)ccc3C[C@@H]2C(=O)C(=O)O)cc1")
"highest"
>>> category_label("O=C(O)C(=O)[C@H]1Cc2ccccc2CN1S(=O)(=O)c1ccc2oc3ccccc3c2c1")
"highest"
>>> category_label("COc1ccc(S(=O)(=O)N2Cc3cc(NC(=O)OC(C)(C)C)ccc3C[C@@H]2C(=O)NO)cc1")
"lowest"

Categorize the following entry: O=C(O)C(=O)C1Cc2ccccc2CN1S(=O)(=O)c1ccc(-c2ccc(Cl)cc2)cc1 (single isomer, unassigned)
highest

Categorize the following entry: COc1ccc(S(=O)(=O)N2Cc3cc([N+](=O)[O-])ccc3C[C@@H]2C(=O)NO)cc1
lowest

Categorize the following entry: COc1ccc(S(=O)(=O)N2Cc3cc(NC(=O)CCC(=O)O)ccc3C[C@@H]2C(=O)NO)cc1
middle

Categorize the following entry: Nc1ccc2c(c1)CN(S(=O)(=O)c1ccc(-c3ccc(F)cc3)cc1)[C@@H](C(=O)NO)C2
lowest

Categorize the following entry: O=C(O)C(=O)[C@H]1Cc2ccccc2CN1S(=O)(=O)c1ccc(-n2nccn2)cc1
middle

Categorize the following entry: COc1ccc(S(=O)(=O)N2Cc3ccccc3C[C@H]2C(=O)NO)cc1
highest

Categorize the following entry: O=C(NO)[C@H]1Cc2ccccc2CN1S(=O)(=O)c1ccc2ccccc2c1
middle

Categorize the following entry: CC(C)(C)OC(=O)Nc1ccc2c(c1)C[C@H](C(=O)C(=O)O)N(S(=O)(=O)c1ccc(-c3ccc(F)cc3)cc1)C2
middle

Categorize the following entry: O=C(O)C(=O)[C@H]1Cc2ccccc2CN1S(=O)(=O)c1ccc(/C=C/c2ccccc2)cc1
middle

Categorize the following entry: COc1ccc(S(=O)(=O)N2Cc3ccccc3C[C@@H]2C(=O)NO)cc1
lowest
